Hello, the source for this data is patent US20240327429A1, in case you need it.

# key: entry, value: IC50
target_of_assay: NOX2 (Homo sapiens)
Construct: endogenous in cells
Sequence (P04839 2-570 limits assumed): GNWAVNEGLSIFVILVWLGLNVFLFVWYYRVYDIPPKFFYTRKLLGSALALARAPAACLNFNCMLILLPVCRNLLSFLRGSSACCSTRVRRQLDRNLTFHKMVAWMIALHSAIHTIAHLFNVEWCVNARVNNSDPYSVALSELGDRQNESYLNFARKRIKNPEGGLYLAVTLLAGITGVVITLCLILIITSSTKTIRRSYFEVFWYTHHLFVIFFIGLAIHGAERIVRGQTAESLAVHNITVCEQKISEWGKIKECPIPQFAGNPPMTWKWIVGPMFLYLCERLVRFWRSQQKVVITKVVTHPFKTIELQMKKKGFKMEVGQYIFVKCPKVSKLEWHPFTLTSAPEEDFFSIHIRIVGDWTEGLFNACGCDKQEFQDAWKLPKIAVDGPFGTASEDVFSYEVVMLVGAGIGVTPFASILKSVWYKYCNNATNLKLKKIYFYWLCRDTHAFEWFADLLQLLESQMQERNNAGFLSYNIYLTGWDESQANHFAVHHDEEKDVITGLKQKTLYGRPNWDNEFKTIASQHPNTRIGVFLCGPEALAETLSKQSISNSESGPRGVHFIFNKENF
Sequence (P13498 2-195 partner limits assumed): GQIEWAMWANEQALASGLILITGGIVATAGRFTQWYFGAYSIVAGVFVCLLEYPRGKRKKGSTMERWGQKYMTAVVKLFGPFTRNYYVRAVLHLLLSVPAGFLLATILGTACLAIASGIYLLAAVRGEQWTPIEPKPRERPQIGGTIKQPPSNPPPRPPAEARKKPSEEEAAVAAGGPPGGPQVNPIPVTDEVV
method_summary: NOX2 inhibition assay (L-012), human blood-derived granulocytes
experimental_setup: fMLP/PMA stimulated
Method: Evaluation of the NOX4 inhibitors on NOX2 activity is assessed in human blood-derived granulocytes. Afterwards, freshly isolated granulocytes are added to the wells containing the compounds in assay buffer and incubated for 1 h at 37° C. […] Afterwards luminescence is measured in a SpectraMax M5 microplate reader.
reported_property: IC50

item_smiles=O=c1c2scnc2nc(SCc2ccc(Cl)cc2)n1-c1cc(F)c(O)c(F)c1 result="> 100 µM"
item_smiles=Cc1cc(F)cc(C)c1CSc1nc2ncsc2c(=O)n1-c1ccc(O)nc1 result="10.3 µM"
item_smiles=O=c1c2scnc2nc(SCc2c(F)cc(F)cc2F)n1-c1cc(F)c(O)cc1F result="> 30 µM"
item_smiles=Cc1c(F)cccc1CSc1nc2ncsc2c(=O)n1-c1cnc(O)c(F)c1 result="> 100 µM"
item_smiles=O=c1c2scnc2nc(SCc2c(F)cc(F)cc2F)n1-c1cnc(O)c(F)c1F result="> 100 µM"
item_smiles=O=c1c2scnc2nc(SCc2c(F)cc(F)cc2F)n1-c1ncc(O)cn1 result="> 100 µM"
item_smiles=O=c1c2scnc2nc(SCc2ccc(C(F)(F)F)cc2)n1-c1cnc(O)c(F)c1 result="> 100 µM"
item_smiles=O=c1c2scnc2nc(SCc2c(F)ccc(F)c2F)n1-c1cnc(O)c(F)c1 result="> 100 µM"
item_smiles=O=c1c2scnc2nc(SCc2c(F)cc(F)cc2F)n1-c1ccc(O)nc1F result="> 100 µM"
item_smiles=O=c1c2scnc2nc(SCc2c(F)cc(F)cc2F)n1-c1ccc(O)nc1 result="> 30 µM"
item_smiles=O=c1c2scnc2nc(SCc2ccc(C(F)(F)F)cc2F)n1-c1ccc(O)nc1 result="> 100 µM"
item_smiles=O=c1c2scnc2nc(SCc2c(F)cc(F)cc2F)n1-c1cc(F)c(O)c(F)c1 result="> 30 µM"
item_smiles=O=c1c2scnc2nc(SCc2c(F)cc(F)cc2F)n1-c1cnc(O)cc1F result="> 100 µM"
item_smiles=Cc1cc(Cl)ccc1CSc1nc2ncsc2c(=O)n1-c1ccc(O)nn1 result="> 100 µM"
item_smiles=O=c1c2scnc2nc(SCc2c(F)cc(F)cc2F)n1-c1cnc(O)c(F)c1 result="10.5 µM"
item_smiles=O=c1c2scnc2nc(SCc2ccc(Cl)cc2)n1-c1cnc(O)c(F)c1 result="> 100 µM"
item_smiles=Cc1cc(F)ccc1CSc1nc2ncsc2c(=O)n1-c1cnc(O)c(F)c1 result="> 100 µM"
